# Organism: Rattus norvegicus
# measurementProtocol: Toxicity in Rattus norvegicus (rat)
# Assay type: organism-based
# conditionDetails: in vivo
assayEndpoint: log(1/LD50)
Response field accepts a number only; no unit should be typed.

-- ask So what does the record say about log(1/LD50) for `CCOC(=O)NC1=C(N2CC2)C(=O)C(NC(=O)OCC)=C(N2CC2)C1=O` ?
-- reply 1.54

-- ask Thanks! And COC1=C(N2CC2C)C(=O)C=C(N2CC2C)C1=O (stereo not given) ?
-- reply 1.4

-- ask Thanks! And CC1=C(N2CC2C)C(=O)C(Br)=C(N2CC2C)C1=O (stereo not given) ?
-- reply 1.59

-- ask Thanks! And `CCC1=C(N2CC2)C(=O)C(Br)=C(N2CC2)C1=O` ?
-- reply 1.39

-- ask Thanks! And CC1=C(N2C(C)C2C)C(=O)C(Br)=C(N2C(C)C2C)C1=O (stereo not given) ?
-- reply 0.63
